Tested on: MCF7
assay details: Induction of cell cycle arrest in human MCF7 cells assessed as cell accumulation at G0/G1 phase at 0.5 uM incubated for 48 hrs by cell counter based assay (reference value: 50.1 to 51.48%)
Type: functional
property label: Activity

**Query** Need Activity of S=C(N/N=C\c1ccc2ccccc2n1)N1CCN(c2ccc(Cl)c(Cl)c2)CC1 , thanks.
**Result** 24.4 - 25%

**Query** Record: COc1ccc(N2CCN(C(=S)N/N=C\c3ccccn3)CC2)cc1
**Result** 34 - 37.28%

**Query** What do you have for O=[N+]([O-])c1ccc(N2CCN(C(=S)N/N=C\c3ccccn3)CC2)cc1 ?
**Result** 19.73 - 22.7%

**Query** // same read-out, input: Fc1ccc(N2CCN(C(=S)N/N=C\c3ccccn3)CC2)cc1
**Result** 26.9 - 27.95%

**Query** Then this molecule: N#Cc1ccc(N2CCN(C(=S)NN=C(c3ccccn3)c3ccccn3)CC2)cc1
**Result** 37.15 - 39.8%

**Query** Param item: S=C(NN=C(c1ccccn1)c1ccccn1)N1CCN(c2ccc(Cl)c(Cl)c2)CC1
**Result** 35 - 36.4%

**Query** And the next one, FC(F)(F)c1ccc(N2CCN(C(=S)N/N=C\c3ccc4ccccc4n3)CC2)nc1 ?
**Result** 20.55 - 23.8%

**Query** Note, next up: O=[N+]([O-])c1ccc(N2CCN(C(=S)N/N=C\c3ccc4ccccc4n3)CC2)cc1
**Result** 29.45 - 29.7%

###

Tested on: HCT-116
assay details: Induction of apoptosis in human HCT116 cells expressing wild type p53 assessed as viable cells at 0.5 uM incubated for 48 hrs by annexin-V-FITC staining based cell counter assay (reference value: 84.99 to 89%)
Format: functional
measurement conditions: HCT-116, 48 h, read-out: Activity
property label: viability at 0.5 µM

**Query** Missing value: viability at 0.5 µM, HCT-116, entry O=[N+]([O-])c1ccc(N2CCN(C(=S)N/N=C\c3ccc4ccccc4n3)CC2)cc1 . Fill in?
**Result** 83.4 to 88.2%

**Query** Consider next the compound Fc1ccc(N2CCN(C(=S)N/N=C\c3ccccn3)CC2)cc1 in the same way.
**Result** 50.5 to 53%

**Query** Same lookup for S=C(NN=C(c1ccccn1)c1ccccn1)N1CCN(c2ccc(Cl)c(Cl)c2)CC1 , please.
**Result** 33.8 to 34%

**Query** Try this compound too: O=[N+]([O-])c1ccc(N2CCN(C(=S)N/N=C\c3ccccn3)CC2)cc1
**Result** 46 to 48.9%

**Query** Now the compound N#Cc1ccc(N2CCN(C(=S)NN=C(c3ccccn3)c3ccccn3)CC2)cc1
**Result** 40.1 to 40.6%

**Query** Try the compound COc1ccc(N2CCN(C(=S)N/N=C\c3ccccn3)CC2)cc1
**Result** 75 to 82.7%

**Query** And then FC(F)(F)c1ccc(N2CCN(C(=S)N/N=C\c3ccc4ccccc4n3)CC2)nc1 , what is it?
**Result** 33.7 to 34%

**Query** Same question for S=C(N/N=C\c1ccc2ccccc2n1)N1CCN(c2ccc(Cl)c(Cl)c2)CC1 please.
**Result** 43.1 to 52.1%

###

Test system: Calf thymus DNA
assay details: Binding affinity to calf thymus DNA assessed as hypochromism incubated for 1.5 hrs by spectrophotometric method
Type: nucleic-acid assay
Set-up: concentration or dose not given beside the values
measurement conditions: Bos taurus
property label: Activity (%)
API: value field is a number in %; no unit string.

**Query** Item under review: FC(F)(F)c1ccc(N2CCN(C(=S)N/N=C\c3ccc4ccccc4n3)CC2)nc1 . Reported Activity?
**Result** 28.7

**Query** # iterate: O=[N+]([O-])c1ccc(N2CCN(C(=S)N/N=C\c3ccccn3)CC2)cc1
**Result** 24.7

**Query** Query CN(C)C(=S)NN=C(c1ccccn1)c1ccccn1 next
**Result** 8.2

**Query** Follow-up item: O=[N+]([O-])c1ccc(N2CCN(C(=S)N/N=C\c3ccc4ccccc4n3)CC2)cc1
**Result** 5.8

**Query** Thanks! And Fc1ccc(N2CCN(C(=S)N/N=C\c3ccccn3)CC2)cc1 ?
**Result** 11

**Query** Next compound up: N#Cc1ccc(N2CCN(C(=S)NN=C(c3ccccn3)c3ccccn3)CC2)cc1
**Result** 10.3

**Query** Now try FC(F)(F)c1ccc(N2CCN(C(=S)N/N=C\c3ccc4ccccc4n3)CC2)cc1 .
**Result** 25.9

**Query** Also need S=C(N/N=C\c1ccc2ccccc2n1)N1CCN(c2ccc(Cl)c(Cl)c2)CC1 , thanks.
**Result** 3.7

**Query** Another: S=C(N/N=C\c1cnc2ccccc2n1)N1CCN(c2ccc(Cl)c(Cl)c2)CC1
**Result** 29.6

**Query** Ok, now S=C(NN=C(c1ccccn1)c1ccccn1)N1CCN(c2ccc(Cl)c(Cl)c2)CC1
**Result** 15.2

**Query** Cool, now COc1cccc2c1C(=O)c1c(O)c3c(c(O)c1C2=O)C[C@@](O)(C(=O)CO)C[C@@H]3O[C@H]1C[C@H](N)[C@H](O)[C@H](C)O1
**Result** 34.2

###

assay details: Selectivity index, ratio of IC50 for human NHDF cells to IC50 for human HCT116 cells expressing wild type p53
property label: Ratio IC50
Reply briefly: the number, and no unit.

**Query** Looking for the measured Ratio IC50 of S=C(NN=C(c1ccccn1)c1ccccn1)N1CCSCC1 , can you help?
**Result** 12.19

**Query** Please do the same for S=C(N/N=C\c1ccc2ccccc2n1)N1CCN(c2ccc(Cl)c(Cl)c2)CC1 as well.
**Result** 92.36

**Query** Similarly, N#Cc1ccc(N2CCN(C(=S)NN=C(c3ccccn3)c3ccccn3)CC2)cc1 ?
**Result** 53.6

**Query** Param item: FC(F)(F)c1ccc(N2CCN(C(=S)N/N=C\c3ccc4ccccc4n3)CC2)nc1
**Result** 90.89

**Query** Now consider O=[N+]([O-])c1ccc(N2CCN(C(=S)N/N=C\c3ccc4ccccc4n3)CC2)cc1 and answer again.
**Result** 0.63

**Query** How about this molecule: COc1ccc(N2CCN(C(=S)N/N=C\c3ccc4ccccc4n3)CC2)cc1
**Result** 0.26

**Query** Would you kindly repeat that for S=C(NN=C(c1ccccn1)c1ccccn1)N1CCN(c2ccc(Cl)c(Cl)c2)CC1 ?
**Result** 41.45

###

System: HCT-116
assay details: Induction of apoptosis in human HCT116 cells expressing wild type p53 assessed as decrease in cyclin D1 expression level at 4 times antiproliferative IC50 incubated for 24 hrs by Western blot analysis relative to control
Type: functional
Task for the reader: assign each of the following molecules its reported inhibition (INH).
Report as a plain number; the unit % is understood.

**Query** # query: inhibition (INH) of entry S=C(N/N=C\c1ccc2ccccc2n1)N1CCN(c2ccc(Cl)c(Cl)c2)CC1
**Result** 90

**Query** Also check S=C(NN=C(c1ccccn1)c1ccccn1)N1CCN(c2ccc(Cl)c(Cl)c2)CC1
**Result** 80

**Query** Continue with N#Cc1ccc(N2CCN(C(=S)NN=C(c3ccccn3)c3ccccn3)CC2)cc1
**Result** 70

**Query** What do you get for O=[N+]([O-])c1ccc(N2CCN(C(=S)N/N=C\c3ccc4ccccc4n3)CC2)cc1 ?
**Result** 90

**Query** // same read-out, input: Fc1ccc(N2CCN(C(=S)N/N=C\c3ccccn3)CC2)cc1
**Result** 90

###

assay details: Selectivity index, ratio of IC50 for human NHDF cells to IC50 for human MCF7 cells
Could you please report measured Ratio IC50 for the items listed next?

**Query** Fill in the blank: the reported Ratio IC50 of O=[N+]([O-])c1ccc(N2CCN(C(=S)NN=C(c3ccccn3)c3ccccn3)CC2)cc1 is ____.
**Result** >154.61

**Query** Then what about the compound Fc1ccc(N2CCN(C(=S)N/N=C\c3ccccn3)CC2)cc1 ?
**Result** >1666.67

**Query** Also COc1ccc(N2CCN(C(=S)N/N=C\c3ccccn3)CC2)cc1 ?
**Result** >46.38

###

assay details: Selectivity index, ratio of IC50 for human NHDF cells to IC50 for human HCT116 cells expressing wild type p53
Can you tell me Ratio IC50 for the items I'm about to list?

**Query** Return reported Ratio IC50; argument: O=[N+]([O-])c1ccc(N2CCN(C(=S)NN=C(c3ccccn3)c3ccccn3)CC2)cc1
**Result** >7.82

**Query** Consider next the compound COc1ccc(N2CCN(C(=S)N/N=C\c3cnc4ccccc4n3)CC2)cc1 in the same way.
**Result** >4.57

**Query** Try this compound too: O=[N+]([O-])c1ccc(N2CCN(C(=S)N/N=C\c3ccc4cccc(O)c4n3)CC2)cc1
**Result** >2.14
